# SUBJECT_OF_TEST: EED (1-441)-His protein (Homo sapiens, UniProt O75530)
# Construct: 20 nM EED (1-441)-His protein
# Sequence (O75530 whole entry): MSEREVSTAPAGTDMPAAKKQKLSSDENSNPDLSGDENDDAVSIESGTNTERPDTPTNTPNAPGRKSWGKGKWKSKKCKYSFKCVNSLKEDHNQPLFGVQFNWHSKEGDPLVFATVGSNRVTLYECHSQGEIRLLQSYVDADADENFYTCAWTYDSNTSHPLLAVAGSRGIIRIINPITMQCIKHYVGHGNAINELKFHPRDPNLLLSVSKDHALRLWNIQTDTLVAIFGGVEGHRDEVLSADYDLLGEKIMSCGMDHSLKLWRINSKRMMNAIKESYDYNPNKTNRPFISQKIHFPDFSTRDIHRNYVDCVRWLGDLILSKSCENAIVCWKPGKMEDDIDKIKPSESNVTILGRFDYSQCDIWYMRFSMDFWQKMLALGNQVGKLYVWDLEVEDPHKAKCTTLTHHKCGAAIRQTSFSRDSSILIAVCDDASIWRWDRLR
# ASSAY_METHOD_TEXT: EED-H3K27Me3 peptide competition binding assay by AlphaScreen
# RUN_CONDITIONS: IC50 class, Table 4B, read-out: Alpha screen
pIC50: −log10 of the molar value.
The reader will find reported pIC50 values listed item by item below.
PROPERTY_LABEL: pIC50

1. O=C1c2ncn3c(NCc4c(F)ccc5c4CCO5)ncc(c23)-c2cnc(C(F)(F)F)cc2CN1C1CCC1 [E 5] | > 8.00
2. CC(C)N1Cc2cc(C#N)ccc2-c2cnc(NCc3c(F)ccc4c3CCO4)n3cnc(c23)C1=O [E 4] | > 8.00
3. Cc1cnc2n1Cc1ncccc1-c1cnc(NCc3c(F)ccc4c3CCO4)n3cnc-2c13 [E 17] | > 8.00
4. Fc1ccc2c(c1CNc1ncc3c4c(ncn14)-c1nccn1Cc1cc(C(F)(F)F)ncc1-3)CCO2 [E 33] | 7.00 to 8.00
5. O=C1c2ncn3c(NCc4c(F)ccc5c4CCO5)ncc(c23)-c2ccc(C(F)(F)F)nc2CN1CC(F)F [E 8] | > 8.00
6. Cc1ccc2c(n1)CN(CC(F)(F)F)C(=O)c1ncn3c(NCc4c(F)ccc5c4CCCO5)ncc-2c13 [E 39] | 7.00 to 8.00
7. Cc1ccc2c(n1)Cc1conc1-c1ncn3c(NCc4c(F)ccc5c4CCO5)ncc-2c13 [E 36] | 7.00 to 8.00
8. CC(C)N1CCc2cc(C(F)(F)F)ncc2-c2cnc(NCc3c(F)ccc4c3CCO4)n3cnc(c23)C1=O [E 31] | 7.00 to 8.00
9. Fc1ccc2c(c1CNc1ncc3c4c(ncn14)-c1nccn1Cc1nc(C(F)(F)F)ccc1-3)CCO2 [E 32] | 7.00 to 8.00
10. Cc1ccc2c(n1)Cn1c(C)cnc1-c1ncn3c(NCc4c(F)ccc5c4CCO5)ncc-2c13 [E 18] | > 8.00
11. CC(C)(C)c1ccc2c(n1)CN(CC(F)(F)F)C(=O)c1ncn3c(NCc4c(F)ccc5c4CCO5)ncc-2c13 [E 50] | > 8.00
12. Cc1ccc2c(n1)CCN(CC(F)(F)F)C(=O)c1ncn3c(NCc4c(F)ccc5c4CCO5)ncc-2c13 [E 30] | 7.00 to 8.00
13. CCc1ccc2c(n1)CN(CC(F)(F)F)C(=O)c1ncn3c(NCc4c(F)ccc5c4CCO5)ncc-2c13 [E 12] | > 8.00
14. CC(C)c1ccc2c(n1)CN(CC(F)(F)F)C(=O)c1ncn3c(NCc4c(F)ccc5c4CCO5)ncc-2c13 [E 15] | > 8.00
15. CCc1ccc2c(n1)CN(CC(C)(F)F)C(=O)c1ncn3c(NCc4c(F)ccc5c4CCO5)ncc-2c13 [E 16] | > 8.00
16. Cc1cc2c(cn1)-c1cnc(NCc3c(F)ccc4c3CCO4)n3cnc(c13)C(=O)N(CC(F)F)C2 [E 9] | > 8.00
17. O=C1c2ncn3c(NCc4c(F)ccc5c4CCO5)ncc(c23)-c2ccc(CC3COCCO3)nc2CN1CC(F)(F)F (stereo not shown) [E 49] | > 8.00
18. Cc1onc2c1Cc1cc(C(F)(F)F)ncc1-c1cnc(NCc3c(F)ccc4c3CCO4)n3cnc-2c13 [E 35] | 7.00 to 8.00
19. Cc1ccc2c(n1)CN(C(C)C)C(=O)c1ncn3c(NCc4c(F)ccc5c4CCO5)ncc-2c13 [E 1] | > 8.00
20. CCc1cnc2n1Cc1nc(C)ccc1-c1cnc(NCc3c(F)ccc4c3CCO4)n3cnc-2c13 [E 38] | 7.00 to 8.00
21. O=C1c2ncn3c(NCc4c(F)ccc5c4CCO5)ncc(c23)-c2ccc(C3CCOCC3)nc2CN1CC(F)(F)F [E 45] | > 8.00
22. CC(C)(C)c1cc2c(cn1)-c1cnc(NCc3c(F)ccc4c3CCO4)n3cnc(c13)C(=O)N(CC(F)(F)F)C2 [E 46] | > 8.00
23. CC(C)c1ccc2c(n1)CN(CC(F)F)C(=O)c1ncn3c(NCc4c(F)ccc5c4CCO5)ncc-2c13 [E 47] | > 8.00
24. Cc1ccc2c(n1)Cn1ccnc1-c1ncn3c(NCc4c(F)ccc5c4CCO5)ncc-2c13 [E 34] | 7.00 to 8.00
25. O=C1c2ncn3c(NCc4c(F)ccc5c4CCO5)ncc(c23)-c2ccc(C3CC3)nc2CN1CC(F)(F)F [E 14] | > 8.00
26. Cc1ccc2c(n1)CCNC(=O)c1ncn3c(NCc4c(F)ccc5c4CCO5)ncc-2c13 [E 29] | 7.00 to 8.00
27. O=C1c2ncn3c(NCc4c(F)ccc5c4CCO5)ncc(c23)-c2ccc(C3COCCO3)nc2CN1CC(F)(F)F (stereo not shown) [E 48] | > 8.00
28. Cc1ccc2c(n1)CN(CC(F)F)C(=O)c1ncn3c(NCc4c(F)ccc5c4CCO5)ncc-2c13 [E 6] | > 8.00

###

# SUBJECT_OF_TEST: EED (1-441)-His protein (Homo sapiens, UniProt O75530)
# Construct: 20 nM EED (1-441)-His protein
# ASSAY_METHOD_TEXT: EED-H3K27Me3 peptide competition binding assay by AlphaScreen
# RUN_CONDITIONS: Table 4A, read-out: Alpha screen
# Description: EED-H3K27Me3 Peptide Competition Binding Assay by AlphaScreen (α-Screen): The compounds at each concentration (2.5 μl of each) were transferred into a 384-well Perkin Elmer OptiPlate-384 white plates. […] Plates were read on CLARIOStar plate reader (BMG Labtech) using the AlphaScreen setting adapted for optimal signal detection with a 615 nm filter, after sample excitation at 680 nm. The emission signal at 615 nm was used to quantify compound inhibition. […]
pIC50: −log10 of the molar value.
Documented pIC50 across a set of molecules
PROPERTY_LABEL: pIC50

1) O=C1c2ncn3c(NCc4c(F)ccc5c4CCO5)ncc(c23)-c2ccc(C(F)(F)F)cc2CN1CC1CCOCC1 | 8.44
2) CC(C)(F)CN1Cc2cc(C(F)(F)F)ccc2-c2cnc(NCc3c(F)ccc4c3CCO4)n3cnc(c23)C1=O | 8.84
3) O=C1OCc2cc(F)ccc2-c2cnc(NCc3cccc4c3CCO4)n3cnc1c23 | 9.08
4) O=C1c2ncn3c(NCc4c(F)ccc5c4CCO5)ncc(c23)-c2ccc(C(F)(F)F)nc2CN1CC1CCOCC1 | 8.97
5) O=C1OCc2cc(OC(F)(F)F)ccc2-c2cnc(NCc3c(F)ccc4c3CCO4)n3cnc1c23 | 9.22
6) CN1CCC(CN2Cc3cc(C(F)(F)F)ncc3-c3cnc(NCc4c(F)ccc5c4CCO5)n4cnc(c34)C2=O)CC1 | 8.90
7) O=C1OCc2ncccc2-c2cnc(NCc3c(F)ccc4occc34)n3cnc1c23 | 8.95

###

# SUBJECT_OF_TEST: EED (1-441)-His protein (Homo sapiens, UniProt O75530)
# Construct: 20 nM EED (1-441)-His protein
# ASSAY_METHOD_TEXT: EED-H3K27Me3 peptide competition binding assay by AlphaScreen
# RUN_CONDITIONS: Table 4A, read-out: Alpha screen
Assign labels as follows, please: Y for IC50 below 0.7 nM; N for IC50 equal to or exceeding 0.7 nM.

1) CN1Cc2nc(C(F)(F)F)ccc2-c2cnc(NCc3c(F)ccc4c3CCO4)n3cnc(c23)C1=O [Compound 33] | N
2) O=C1NCc2ccccc2-c2cnc(NCc3c(F)ccc4c3CCO4)n3cnc1c23 [Compound 15] | Y
3) CN1CCC(N2Cc3cc(C(F)(F)F)ccc3-c3cnc(NCc4c(F)ccc5c4CCO5)n4cnc(c34)C2=O)CC1 [Compound 74] | N
4) O=C1c2ncn3c(NCc4c(F)ccc5c4CCO5)ncc(c23)-c2cnc(C(F)(F)F)cc2CN1C1CC(F)(F)C1 [Compound 85] | N
5) CN1Cc2cc(C(F)(F)F)ncc2-c2cnc(NCc3c(F)ccc4c3CCO4)n3cnc(c23)C1=O [Compound 34] | Y
6) O=C1c2ncn3c(NCc4c(F)ccc5c4CCO5)ncc(c23)-c2ccc(F)cc2CN1CCF [Compound 79] | N

###

# SUBJECT_OF_TEST: EED (1-441)-His protein (Homo sapiens, UniProt O75530)
# Construct: 20 nM EED (1-441)-His protein
# ASSAY_METHOD_TEXT: EED-H3K27Me3 peptide competition binding assay by AlphaScreen
# RUN_CONDITIONS: Table 4A, read-out: Alpha screen
# Method: EED-H3K27Me3 Peptide Competition Binding Assay by AlphaScreen (α-Screen): The compounds at each concentration (2.5 μl of each) were transferred into a 384-well Perkin Elmer OptiPlate-384 white plates. […] Plates were read on CLARIOStar plate reader (BMG Labtech) using the AlphaScreen setting adapted for optimal signal detection with a 615 nm filter, after sample excitation at 680 nm. The emission signal at 615 nm was used to quantify compound inhibition. […]
pIC50: −log10 of the molar value.
PROPERTY_LABEL: pIC50

1) O=C1c2ncn3c(NCc4c(F)ccc5c4CCO5)ncc(c23)-c2ccc(C(F)(F)F)cc2CN1CC(F)(F)F | 8.00
2) COc1cccc(F)c1CNc1ncc2c3c(ncn13)C(=O)OCc1cc(C(F)(F)F)ccc1-2 | 8.59
3) CC(C)(O)CN1Cc2nc(C(F)(F)F)ccc2-c2cnc(NCc3c(F)ccc4c3CCO4)n3cnc(c23)C1=O | 8.56
4) O=C1c2ncn3c(NCc4c(F)ccc5c4CCO5)ncc(c23)-c2ccc(C(F)(F)F)nc2CN1CC1COCCO1 (stereo not shown) | 8.94
